experiment: Cell permeability, flux assay using Caco-2 cells; format: in vitro ADME; conditions: human; Caco-2 flux assay, basal to apical, 2 h incubation
Recorded Papp B→A at 2 h by entry
Number only, in ×10⁻⁶ cm/s; omit the unit.

{"columns": ["molecule", "observable", "endpoint.result"],
 "data": [
  ["CC[C@H](C)[C@@H]([C@@H](CC(=O)N1CCC[C@H]1[C@H](OC)[C@@H](C)C(=O)N[C@H](/C=C/c1ccc(C(=O)O)cc1)Cc1ccccc1)OC)N(C)C(=O)[C@@H](NC(=O)[C@H](C(C)C)N(C)CCCC(=O)O)C(C)C [Example 11]", "Papp B→A at 2 h", 0.2]
]}

Now let's try a different one.
Notebook: CC[C@H](C)[C@@H]([C@@H](CC(=O)N1CCC[C@H]1[C@H](OC)[C@@H](C)C(=O)NCCc1ccccc1)OC)N(C)C(=O)[C@@H](NC(=O)[C@H](C(C)C)N(C)CCCC(=O)O)C(C)C [Example 8] , Papp B→A at 2 h read as 1

###

Recorded Papp B→A at 2 h by entry
assay: Cell permeability, flux assay using Caco-2 cells; format: in vitro ADME; conditions: human; Caco-2 flux assay, basal to apical, 2 h incubation
Number only, in ×10⁻⁶ cm/s; omit the unit.

Worked examples, 3 compounds total:
{"columns": ["given.smiles", "unit.of.measure", "Papp B→A at 2 h"],
 "data": [
  ["CC[C@H](C)[C@@H]([C@@H](CC(=O)N1CCC[C@H]1[C@H](OC)[C@@H](C)C(=O)NCCc1c[nH]c2ccccc12)OC)N(C)C(=O)[C@@H](NC(=O)[C@H](C(C)C)N(C)CCCC(=O)O)C(C)C", "×10⁻⁶ cm/s", 1.1],
  ["CC[C@H](C)[C@@H]([C@@H](CC(=O)N1CCC[C@H]1[C@H](OC)[C@@H](C)C(=O)N[C@H](/C=C/c1ccccc1)Cc1ccccc1)OC)N(C)C(=O)[C@@H](NC(=O)[C@H](C(C)C)N(C)CCCC(=O)O)C(C)C", "×10⁻⁶ cm/s", 17.9],
  ["CC[C@H](C)[C@@H]([C@@H](CC(=O)N1CCC[C@H]1[C@H](OC)[C@@H](C)C(=O)N[C@H](Cc1ccccc1)c1nnc(-c2ccccc2)o1)OC)N(C)C(=O)[C@@H](NC(=O)[C@H](C(C)C)N(C)CCCC(=O)O)C(C)C", "×10⁻⁶ cm/s", 4.5]
]}

Notebook: `CC[C@H](C)[C@@H]([C@@H](CC(=O)N1CCC[C@H]1[C@H](OC)[C@@H](C)C(=O)N[C@@H](Cc1ccccc1)CS(=O)(=O)Cc1ccccc1)OC)N(C)C(=O)[C@@H](NC(=O)[C@H](C(C)C)N(C)CCCC(=O)O)C(C)C` , Papp B→A at 2 h read as 1.9

###

test: Cell permeability, flux assay using Caco-2 cells; assay type: in vitro ADME; conditions: human; Caco-2 flux assay, basal to apical, 2 h incubation
observable: Papp B→A at 2 h (×10⁻⁶ cm/s)
Number only, in ×10⁻⁶ cm/s; omit the unit.

Worked examples, 2 molecules total:
{"columns": ["given.smiles", "unit.of.measure", "Papp B→A at 2 h"],
 "data": [
  ["CC[C@H](C)[C@@H]([C@@H](CC(=O)N1CCC[C@H]1[C@H](OC)[C@@H](C)C(=O)N[C@H](/C=C\\c1ccccc1)Cc1ccccc1)OC)N(C)C(=O)[C@@H](NC(=O)[C@H](C(C)C)N(C)CCCC(=O)O)C(C)C", "×10⁻⁶ cm/s", 15.7],
  ["CC[C@H](C)[C@@H]([C@@H](CC(=O)N1CCC[C@H]1[C@H](OC)[C@@H](C)C(=O)N[C@H](C)[C@@H](O)c1ccccc1)OC)N(C)C(=O)[C@@H](NC(=O)[C@H](C(C)C)N(C)CCCC(=O)O)C(C)C", "×10⁻⁶ cm/s", 0.45]
]}

Now let's try a different one.
Notebook: `CC[C@H](C)[C@@H]([C@@H](CC(=O)N1CCC[C@H]1[C@H](OC)[C@@H](C)C(=O)N[C@@H](Cc1ccccc1)c1nnc(-c2ccccc2)o1)OC)N(C)C(=O)[C@@H](NC(=O)[C@H](C(C)C)N(C)CCCC(=O)O)C(C)C` , Papp B→A at 2 h read as 2.9

Recorded values, source patent US9029406B2.
